# TARGET OF ASSAY: human LTA4 hydrolase (Homo sapiens, UniProt P09960)
# Sequence (P09960 whole entry): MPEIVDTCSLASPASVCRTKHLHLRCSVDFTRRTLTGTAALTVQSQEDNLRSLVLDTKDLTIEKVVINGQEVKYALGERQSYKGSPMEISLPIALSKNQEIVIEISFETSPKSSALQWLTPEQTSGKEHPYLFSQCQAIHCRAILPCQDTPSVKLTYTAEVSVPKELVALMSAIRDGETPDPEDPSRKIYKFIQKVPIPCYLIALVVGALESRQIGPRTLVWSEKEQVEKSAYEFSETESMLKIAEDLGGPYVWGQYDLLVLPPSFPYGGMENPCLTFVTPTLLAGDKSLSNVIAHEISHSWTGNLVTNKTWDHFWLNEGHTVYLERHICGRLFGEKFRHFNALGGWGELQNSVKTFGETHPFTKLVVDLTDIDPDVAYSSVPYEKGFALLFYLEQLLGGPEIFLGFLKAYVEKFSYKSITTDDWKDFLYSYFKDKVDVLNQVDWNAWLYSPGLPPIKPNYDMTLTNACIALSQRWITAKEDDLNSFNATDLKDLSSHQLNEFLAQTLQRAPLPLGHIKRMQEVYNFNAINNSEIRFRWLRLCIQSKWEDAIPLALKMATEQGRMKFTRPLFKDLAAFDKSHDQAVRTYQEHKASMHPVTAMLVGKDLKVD
# ASSAY METHOD TEXT: LTA4H Enzyme assay (cleavage of Arg-AMC, fluorescence)
# Format: biochemical
# EXPERIMENTAL SETUP: LTA4H Enzyme 1 nM, Arg-AMC substrate 50 μM, room temperature 1 h, fluorescence; read-out: IC50 values of LTA4H Enzyme assay
OUTCOME MEASURE: IC50 (nM)
Your answer should be a plain number; it is taken to be in nM.

Lookup: Please tell me: IC50 of O=C(NCCO)C1CCN(Cc2ccc([C@H]3COc4cccnc4O3)cc2)CC1 [Example 154] , system human LTA4 hydrolase (Homo sapiens, UniProt P09960)?
Found: 0.2

Lookup: Now consider Fc1ccc2c(c1)OC(c1ccc(CN3CCOCC3)cc1)CO2 (stereo not drawn) [Example 202] .
Found: 23.4

Lookup: Field entry: COCCOC1CCN(Cc2ccc([C@H]3COc4cccnc4O3)cc2)CC1 [Example 170]
Found: 0.47

Lookup: Cool, now CNC(=O)C1CCN(Cc2ccc([C@H]3COc4ccccc4O3)cc2)CC1 [Example 179]
Found: 0.16

Lookup: Would you mind doing Cn1cnc(CNCc2ccc(C3COc4ccccc4O3)cc2)c1 (racemic) [Example 55] as well?
Found: 3.63

Lookup: Now consider NC(=O)C1CCCN(Cc2ccc([C@H]3COc4cccnc4O3)cc2)C1 (stereo partly drawn) [Example 136] and answer again.
Found: 0.19

Lookup: Okay, and O=C(NCCO)C1CCN(Cc2ccc(C3COc4ccccc4O3)cc2)CC1 (racemic) [Example 52] ?
Found: 0.75

Lookup: Request: CONC(=O)CC1CCN(Cc2ccc([C@H]3COc4cccnc4O3)cc2)CC1 [Example 260]
Found: 0.57

Lookup: What do you have for O=C(O)C1CN(Cc2ccc([C@H]3COc4ccccc4O3)cc2)Cc2ccccc21 (stereo partly drawn) [Example 56] ?
Found: 6.08
